observed property: CC50

Challenge: Specify the recorded CC50 for Nc1ccn([C@@H]2C[C@@H](O)[C@H](CO)O2)c(=O)n1 [L-dC, 2′-deoxy-β-L-cytidine] , system: KB, human nasopharyngeal carcinoma.
Response given: > 100 µM

###

- Tested on: human erythroid burst-forming (BFU-E) progenitor cells
- Type: cell-based
- experimental context: human bone marrow clonogenic assay
observed property: pIC50
Interpret pIC50 as the negative base-10 log of the concentration measured in mol/L.

Challenge: Using the record for Cc1cn([C@H]2C[C@H](N=[N+]=[N-])[C@@H](CO)O2)c(=O)[nH]c1=O [ZDV, zidovudine, reference compound] , state its measured pIC50.
Response given: 6.15

###

- Assay type: in vivo
- experimental context: L-dC 10 mg/kg PO, woodchuck; analyte = label; read-out: Cmax in plasma
observed property: Cmax (nM)
Quick reminder: number only, in nM, skip the unit.

Challenge: Using the record for "Nc1ccn([C@@H]2C[C@@H](O)[C@H](CO)O2)c(=O)n1" , state its measured Cmax.
Response given: 1370

###

- assay target: human DNA polymerase β (Homo sapiens, UniProt P06746)
- Type: biochemical
- experimental context: highest concentration tested 100 μM; read-out: IC50 Human DNA pol β
Provide the recorded IC50 for the entries that follow.

Challenge: Using the record for "Nc1ccn([C@@H]2C[C@@H](O)[C@H](COP(=O)(O)OP(=O)(O)OP(=O)(O)O)O2)c(=O)n1" , state its measured IC50.
Response given: > 100 µM

Challenge: Using the record for O=c1ccn([C@@H]2C[C@@H](O)[C@H](COP(=O)(O)OP(=O)(O)OP(=O)(O)O)O2)c(=O)[nH]1 [L-dU-TP, β-L-2′-deoxyuridine 5′-triphosphate] , state its measured IC50.
Response given: > 100 µM

###

- assay text: in vitro
- experimental context: human
observed property: half-life (h)
Quick reminder: number only, in h, skip the unit.

Challenge: Using the record for Nc1ccn([C@@H]2C[C@@H](O)[C@H](COP(=O)(O)OP(=O)(O)OP(=O)(O)O)O2)c(=O)n1 [L-dC-TP] , state its measured half-life.
Response given: 15.5

###

- assay text: Cytotoxicity in 2.2.15 cells
- experimental context: human, 2.2.15 hepatoma cells
observed property: CC50

Challenge: Using the record for Nc1ccn([C@@H]2CS[C@H](CO)O2)c(=O)n1 [lamivudine, reference compound] , state its measured CC50.
Response given: > 1000 µM

###

- assay target: virion-associated DNA polymerase of WHV (Woodchuck hepatitis B virus)
- Sequence (P03160 whole entry): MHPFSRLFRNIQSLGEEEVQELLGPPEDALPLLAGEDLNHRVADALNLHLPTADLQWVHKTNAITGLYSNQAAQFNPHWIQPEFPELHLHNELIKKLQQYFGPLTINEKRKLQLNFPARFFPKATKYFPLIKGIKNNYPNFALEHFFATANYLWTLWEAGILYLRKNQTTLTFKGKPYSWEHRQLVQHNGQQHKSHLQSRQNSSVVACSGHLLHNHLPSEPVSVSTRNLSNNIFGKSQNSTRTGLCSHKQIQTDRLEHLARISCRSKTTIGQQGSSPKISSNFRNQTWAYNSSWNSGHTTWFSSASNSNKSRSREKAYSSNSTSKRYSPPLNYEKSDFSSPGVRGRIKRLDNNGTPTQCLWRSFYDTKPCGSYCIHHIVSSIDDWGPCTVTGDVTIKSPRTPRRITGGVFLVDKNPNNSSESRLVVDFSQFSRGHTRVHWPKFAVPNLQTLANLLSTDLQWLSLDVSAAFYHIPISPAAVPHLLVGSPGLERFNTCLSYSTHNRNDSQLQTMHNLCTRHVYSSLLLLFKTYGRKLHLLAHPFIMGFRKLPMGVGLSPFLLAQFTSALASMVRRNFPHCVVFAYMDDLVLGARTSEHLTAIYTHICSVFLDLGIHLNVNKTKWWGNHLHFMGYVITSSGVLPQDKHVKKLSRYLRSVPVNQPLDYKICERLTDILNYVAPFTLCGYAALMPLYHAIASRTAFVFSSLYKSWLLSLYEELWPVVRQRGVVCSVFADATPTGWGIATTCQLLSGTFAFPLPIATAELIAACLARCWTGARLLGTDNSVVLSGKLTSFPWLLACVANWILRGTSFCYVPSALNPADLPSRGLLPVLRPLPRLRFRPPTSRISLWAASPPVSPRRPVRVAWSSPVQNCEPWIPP
- assay text: biochemical
- experimental context: endogenous polymerase assay; read-out: IC50 Viral DNA pol (WHV DNA polymerase)
Provide the recorded pIC50 for the entries that follow.
Interpret pIC50 as the negative base-10 log of the concentration measured in mol/L.

Challenge: Specify the recorded pIC50 for "Nc1ncnc2c1ncn2[C@@H]1CC[C@H](COP(=O)(O)OP(=O)(O)OP(=O)(O)O)O1" , system: virion-associated DNA polymerase of WHV (Woodchuck hepatitis B virus).
Response given: 5.70

Challenge: Specify the recorded pIC50 for "Cc1cn([C@H]2O[C@@H](COP(=O)(O)OP(=O)(O)OP(=O)(O)O)[C@H](O)[C@H]2F)c(=O)[nH]c1=O" , system: virion-associated DNA polymerase of WHV (Woodchuck hepatitis B virus).
Response given: 6.82

Challenge: Specify the recorded pIC50 for "Nc1ccn([C@@H]2CS[C@H](COP(=O)(O)OP(=O)(O)OP(=O)(O)O)O2)c(=O)n1" , system: virion-associated DNA polymerase of WHV (Woodchuck hepatitis B virus).
Response given: 6.30

###

- Test system: CV-1, African green monkey kidney fibroblast cells
observed property: CC50

Challenge: Specify the recorded CC50 for "Nc1ccn([C@@H]2C[C@@H](O)[C@H](CO)O2)c(=O)n1" , system: CV-1, African green monkey kidney fibroblast cells.
Response given: > 100 µM

###

- System: HepG2 cells
- assay text: Mitochondrial toxicity assay in HepG2 cells
- Type: cell-based, human
- experimental context: HepG2, after 14 days of treatment
observed property: CC50

Challenge: Specify the recorded CC50 for "Nc1ccn([C@@H]2C[C@@H](O)[C@H](CO)O2)c(=O)n1" , system: HepG2 cells.
Response given: > 2000 µM

###

Provide the recorded CC50 at 14 days for the entries that follow.
- assay text: Mitochondrial toxicity assay in HepG2 cells
- Format: cell-based, human
- experimental context: human
Put down the number, then write its unit next to it.

Challenge: Using the record for Nc1ccn([C@H]2CC[C@@H](CO)O2)c(=O)n1 [ddC, zalcitabine, reference compound] , state its measured CC50 at 14 days.
Response given: 20 µM

Challenge: Using the record for O=c1[nH]c(=O)n([C@@H]2O[C@H](CO)[C@@H](O)[C@@H]2F)cc1I [FIAU, fialuridine, reference compound] , state its measured CC50 at 14 days.
Response given: 4 µM

Challenge: Using the record for Cc1cn([C@H]2C[C@H](N=[N+]=[N-])[C@@H](CO)O2)c(=O)[nH]c1=O [ZDV, zidovudine, reference compound] , state its measured CC50 at 14 days.
Response given: 14 µM

###

observed property: CC50

Challenge: Specify the recorded CC50 for "Nc1ccn([C@@H]2C[C@@H](O)[C@H](CO)O2)c(=O)n1" , system: MA-104, rhesus monkey kidney epithelial cells.
Response given: > 100 µM

###

Provide the recorded pIC50 for the entries that follow.
- assay target: human DNA polymerase γ (Homo sapiens)
- Sequence (P54098 whole entry): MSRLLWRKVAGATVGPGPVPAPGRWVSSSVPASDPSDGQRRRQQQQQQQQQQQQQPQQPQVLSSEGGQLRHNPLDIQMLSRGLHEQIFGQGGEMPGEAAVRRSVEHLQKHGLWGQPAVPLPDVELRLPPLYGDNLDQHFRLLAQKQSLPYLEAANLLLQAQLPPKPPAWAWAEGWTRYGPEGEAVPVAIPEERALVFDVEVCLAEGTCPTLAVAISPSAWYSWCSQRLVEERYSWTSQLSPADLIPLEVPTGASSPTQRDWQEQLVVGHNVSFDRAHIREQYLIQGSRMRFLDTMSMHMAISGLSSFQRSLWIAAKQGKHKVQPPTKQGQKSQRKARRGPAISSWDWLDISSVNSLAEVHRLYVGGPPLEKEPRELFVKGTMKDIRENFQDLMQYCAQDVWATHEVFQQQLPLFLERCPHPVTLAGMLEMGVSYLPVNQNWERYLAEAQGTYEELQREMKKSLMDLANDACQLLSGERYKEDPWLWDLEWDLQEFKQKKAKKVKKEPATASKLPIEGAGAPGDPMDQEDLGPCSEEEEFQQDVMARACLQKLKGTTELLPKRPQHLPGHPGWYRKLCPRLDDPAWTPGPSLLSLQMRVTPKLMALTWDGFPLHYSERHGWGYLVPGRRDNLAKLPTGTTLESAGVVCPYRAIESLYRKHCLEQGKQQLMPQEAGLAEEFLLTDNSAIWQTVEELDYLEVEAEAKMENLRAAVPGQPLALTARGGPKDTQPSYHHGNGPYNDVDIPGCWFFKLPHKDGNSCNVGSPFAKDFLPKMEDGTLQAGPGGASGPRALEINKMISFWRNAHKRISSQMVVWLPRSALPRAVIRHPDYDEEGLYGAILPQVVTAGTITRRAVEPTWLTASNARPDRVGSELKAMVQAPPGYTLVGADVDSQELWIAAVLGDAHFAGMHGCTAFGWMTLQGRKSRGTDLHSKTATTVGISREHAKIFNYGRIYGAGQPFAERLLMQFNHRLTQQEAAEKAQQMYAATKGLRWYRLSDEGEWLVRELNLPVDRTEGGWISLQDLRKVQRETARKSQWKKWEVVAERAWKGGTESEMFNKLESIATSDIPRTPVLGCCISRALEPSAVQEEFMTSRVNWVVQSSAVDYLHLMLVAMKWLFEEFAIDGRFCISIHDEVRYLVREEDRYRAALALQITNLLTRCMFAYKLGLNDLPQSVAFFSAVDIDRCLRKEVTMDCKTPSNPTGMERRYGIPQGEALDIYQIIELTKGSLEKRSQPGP
- Assay type: biochemical
- experimental context: highest concentration tested 100 μM
pIC50: −log10 of the molar value.

Challenge: Using the record for "Nc1ccn([C@@H]2C[C@@H](O)[C@H](COP(=O)(O)OP(=O)(O)OP(=O)(O)O)O2)c(=O)n1" , state its measured pIC50.
Response given: < 4.00

Challenge: Using the record for O=c1ccn([C@@H]2C[C@@H](O)[C@H](COP(=O)(O)OP(=O)(O)OP(=O)(O)O)O2)c(=O)[nH]1 [L-dU-TP, β-L-2′-deoxyuridine 5′-triphosphate] , state its measured pIC50.
Response given: < 4.00

###

- System: MDCK, canine kidney epithelial cells
observed property: CC50

Challenge: Using the record for "Nc1ccn([C@@H]2C[C@@H](O)[C@H](CO)O2)c(=O)n1" , state its measured CC50.
Response given: > 100 µM

###

- Assay type: in vivo
- experimental context: L-dC 10 mg/kg IV, woodchuck; analyte = label; read-out: Cmax in plasma
observed property: Cmax (µM)
Quick reminder: number only, in µM, skip the unit.

Challenge: Using the record for "Nc1ccn([C@@H]2C[C@@H](O)[C@H](CO)O2)c(=O)n1" , state its measured Cmax.
Response given: 112

###

- System: Parainfluenza type 3
- assay text: Antiviral panel: Parainfluenza type 3 (MA-104)
- Type: cell-based
observed property: EC50

Challenge: Using the record for "Nc1ccn([C@@H]2C[C@@H](O)[C@H](CO)O2)c(=O)n1" , state its measured EC50.
Response given: > 100 µM

###

- assay text: Single dose bioavailability of dival-L-dC (IV and oral) in cynomologus monkey
- Assay type: in vivo, cynomologus monkey (macaca fascicularis)
- experimental context: Intravenous (10 mg/kg Dival-L-dC); analyte = label; read-out: Cmax of each metabolite
observed property: Cmax
Put down the number, then write its unit next to it.

Challenge: Using the record for "Nc1ccn([C@@H]2C[C@@H](O)[C@H](CO)O2)c(=O)n1" , state its measured Cmax.
Response given: 24.6 µM

###

- System: human hepatoma cell line 2.2.15
- assay text: Cytotoxicity in 2.2.15 cells
- experimental context: 2.2.15 cells; 50% inhibition of neutral red dye uptake (Table 25)
observed property: CC50 (mM)
Quick reminder: number only, in mM, skip the unit.

Challenge: Specify the recorded CC50 for "Cc1cn([C@@H]2C[C@@H](O)[C@H](CO)O2)c(=O)[nH]c1=O" , system: human hepatoma cell line 2.2.15.
Response given: 3.02

Data provenance is patent US7585851B2.
